assay: MRT in Sprague-Dawley rat at 25 mg/kg, po by LC-MS/MS analysis; assay type: ADME, organism-based; settings: in vivo
measured-parameter: MRT (h)
Just the number in h, nothing appended.

Quick note, MRT for COC(=O)[C@H](Cc1ccccc1)NC(=O)/C=C/c1ccc(O)c(O)c1 landed at 3.06

* * *

system: SH-SY5Y; experiment: Neuroprotection against H2O2-induced cell death in human SH-SY5Y cells preincubated for 6 hrs followed by H2O2 addition and measured after 24 hrs by MTT assay; type: functional, cell-based
measured-parameter: log10 EC50 (log10 of the value in µM)
Hello, just confirming the data are log10 of EC50 with units of µM.

Observed log10 EC50 on SH-SY5Y, entry COC(=O)[C@H](Cc1ccc(O)c(O)c1)NC(=O)/C=C/c1ccc(O)cc1 , equals 1.28

Form field, log10 EC50 with SH-SY5Y, item COC(=O)[C@H](Cc1ccc(O)c(O)c1)NC(=O)/C=C/c1ccc(O)c(OC)c1 : 1.38

Observed log10 EC50 on SH-SY5Y, entry COC(=O)[C@H](Cc1ccc(O)c(O)c1)NC(=O)/C=C/c1ccc(O)c(O)c1 , equals 1.19

Given the molecule COC(=O)[C@H](Cc1ccc(O)cc1)NC(=O)/C=C/c1ccc(O)c(O)c1 and test system SH-SY5Y, the measured log10 EC50 is 1.05

Case COC(=O)[C@H](Cc1ccccc1)NC(=O)/C=C/c1ccc(O)c(O)c1 , SH-SY5Y, log10 EC50 recorded as 0.63

Given the molecule CC(=O)N[C@@H](CS)C(=O)O and test system SH-SY5Y, the measured log10 EC50 is 3.23

Tested on SH-SY5Y, the item COC(=O)[C@H](Cc1ccc(O)c(O)c1)NC(=O)/C=C/c1cccc(O)c1 showed log10 EC50 equal to 1.24

Bench note, SH-SY5Y: entry COC(=O)[C@H](Cc1ccc(O)c(O)c1)NC(=O)/C=C/c1ccccc1 , its log10 EC50 = 1.16

# value of log10 EC50, SH-SY5Y, item O=C(O)/C=C/c1ccc(O)c(O)c1 = 1.53
